Let's look at some compounds and their measured IC50.
Biological target: PDGFRβ (Homo sapiens (Human), UniProt P09619)
Sequence (P09619 33-1106): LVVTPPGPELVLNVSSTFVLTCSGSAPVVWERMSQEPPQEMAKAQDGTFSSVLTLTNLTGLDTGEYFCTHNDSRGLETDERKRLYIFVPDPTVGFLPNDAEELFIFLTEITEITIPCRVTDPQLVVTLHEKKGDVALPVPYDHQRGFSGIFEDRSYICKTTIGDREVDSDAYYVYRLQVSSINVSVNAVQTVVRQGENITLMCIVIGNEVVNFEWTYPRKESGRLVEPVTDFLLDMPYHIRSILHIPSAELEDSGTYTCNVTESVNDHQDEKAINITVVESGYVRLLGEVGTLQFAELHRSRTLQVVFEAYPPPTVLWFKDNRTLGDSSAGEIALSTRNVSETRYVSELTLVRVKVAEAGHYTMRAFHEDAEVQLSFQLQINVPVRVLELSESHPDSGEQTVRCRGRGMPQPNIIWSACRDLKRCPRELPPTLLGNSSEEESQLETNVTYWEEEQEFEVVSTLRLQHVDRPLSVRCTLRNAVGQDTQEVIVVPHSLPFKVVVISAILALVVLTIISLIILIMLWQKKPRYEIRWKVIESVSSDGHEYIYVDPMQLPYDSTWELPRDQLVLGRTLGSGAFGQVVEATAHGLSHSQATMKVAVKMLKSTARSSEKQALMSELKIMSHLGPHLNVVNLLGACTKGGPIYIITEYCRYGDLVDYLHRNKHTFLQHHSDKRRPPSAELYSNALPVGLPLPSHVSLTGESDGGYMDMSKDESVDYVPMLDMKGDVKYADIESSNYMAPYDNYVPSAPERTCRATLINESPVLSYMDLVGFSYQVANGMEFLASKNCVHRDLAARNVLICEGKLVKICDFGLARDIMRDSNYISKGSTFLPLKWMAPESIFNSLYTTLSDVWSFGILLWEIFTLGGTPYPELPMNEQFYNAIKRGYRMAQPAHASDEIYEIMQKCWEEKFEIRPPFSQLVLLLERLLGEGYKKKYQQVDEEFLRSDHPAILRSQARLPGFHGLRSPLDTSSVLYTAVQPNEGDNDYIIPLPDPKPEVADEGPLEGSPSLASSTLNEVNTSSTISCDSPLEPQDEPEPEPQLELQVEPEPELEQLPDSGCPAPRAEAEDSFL
Experiment: Inhibition of PDGFRβ kinase activity (HTRF KinEASE-TK)
Settings: biochemical, HTRF KinEASE-TK

Example results:
> print(dat)
                                   compound  property.name          result
1  CCOc1ccc(NC(=O)c2cc(NC(=O)c3cnc(N)s3)c(F)cc2F)nc1 [Example 212]           IC50       > 1000 nM
2  Cc1cc(F)c(C(=O)N[C@H]2C[C@@H](F)C2)cc1NC(=O)c1cnc(N)s1 [Example 124]           IC50       > 1000 nM
3  Cc1cc(F)c(C(=O)Nc2ccc(OCC3CC3)cn2)cc1NC(=O)c1cnc(N)s1 [Example 143]           IC50  100 to 1000 nM

Below: the item to evaluate.
Query string: IC50 of Cc1cc(F)c(C(=O)Nc2cc3n(n2)CCC3)cc1NC(=O)c1cnc(N)s1 [Example 156] on PDGFRβ (Homo sapiens (Human), UniProt P09619)?
Result string: 100 to 1000 nM
